The entries below come with measured log10 IC50 values attached.
# assayed_target: enzyme I (Escherichia coli, UniProt P08839)
# Construct: 3 µM each of purified HPr and enzyme I (Mao et al., 1995); made in house
# experiment_description: biochemical
# Parameters: species or system E. coli
# condition_context: peptides identified by phage display; 30 min at 37°C, HPr rate limiting; read-out: inhibition IC50
No end group written: not given here.
Each number you see is log10 of IC50, and the unit inside the log is µM.

>>> result_number("KISRHGRPTG [compound 19]")
3.03
>>> result_number("RHYLLF [compound 26, RHYLLF]")
2.70
>>> result_number("MSRHRN [compound 29, MSRHRN]")
2.88
>>> result_number("RLHYLF [compound 21, RLHYLF]")
2.57
>>> result_number("SGRKSTRVHHWLLVL [compound 15]")
1.78

Query string: Data request, read-out log10 IC50, for Ac-DGARLHYLF [compound 23]
Result string: 3.88

Query string: Find the recorded log10 IC50 belonging to RIHFIPRRGR [compound 20] and report it.
Result string: 2.45

Query string: Any idea what its log10 IC50 is? The substance is RHWSIF [compound 24, RHWSIF]
Result string: 2.60

Query string: Requested field: log10 IC50. Item: KMSRHRKPGA [compound 16]
Result string: 2.00

Query string: Which log10 IC50 is listed for RHRTLF [compound 25, RHRTLF] ?
Result string: 2.61

Query string: Need log10 IC50, item KISRHGKRGK [compound 18]
Result string: 2.15

Query string: Query: log10 IC50; subject: DGARLHYLF [compound 22]
Result string: 3.08

Reference source for all entries: patent EP0866075B1
